Parameter Kd: see the listing below.
System Under Test: monomeric alpha-synuclein (UniProt P37840 1-140)
Procedure Summary: SPR, captured mAb
Report as a plain number; the unit nM is understood.

Example results:
{"Binder": "ACI-8032-6301A10-Ab2 (antibody, V domains shown, mouse hybridoma mAb; VH/VL only; also called 6301A10E12) VH: QVQLQQSGAELARPGASVKLSCKASGYTFTSYGISWVKQRTGQGLEWIGEIYPRSGNTYYNEKFKGKATLTADKSSSTAYMELRSLTSEDSAVYFCASESYYGDYDWYFDVWGTGTTVTVSS VL: DVLMTQTPLSLPVSLGDQASISCRSSHSIEHSNGNTYLEWCLQKPGQPPKFLIYKVSNRFSGVPDRFSGSGSGTDFTLRISRVEAEDLGVYYCFQGSHVPPTFGGGTKLEIK", "Recorded Measurement": 11.5}
{"Binder": "ACI-8032-6301C8-Ab2 (antibody, V domains shown, mouse hybridoma mAb; VH/VL only; also called 6301C8G12) VH: QVQLQQSGAELARPGTSVKLSCKASGYTFTTYGISWVKQRTGQGLEWIGEIYPRSGNTYYNEKFKGKATLTADKPSSTAYMELRSLTSEDSAVYFCASESYYGDYAWYFDVWGTGTTVTVSS VL: DVLMTQIPLSLPVSLGDQASISCRSSQSIVHSNGNTYLEWHLQKPGQSPKLLIYEVSNRFSGVPDRFSGSGSGTDFTLNISRVEAEDLGVYYCFQGSHVPPTFGGGTKLEIK", "Recorded Measurement": 8.76}
{"Binder": "ACI-7079-3101E3-Ab1 (antibody, V domains shown, mouse hybridoma mAb; VH/VL only; also called 3101E3C9) VH: QVQLKESGPGLVAPSQSLSITCTVSGFSLTRYIINWVRQPPGKGLEWLGVIWTGGGTDYNSALKSRLSISKDNSKSQVFLKMNSLQTDDTARYYCAREYGYDGAWFAYWGQGTLVTVSA VL: DVLMTQTPLSLPVSLGDQASISCRSSQTIVHSNGNTYLEWYLQKPGQSPKLLIYKVSNRFSGVPDRFSGSGSGTDFTLKISRVEAEDLGVYYCFQGSHVPYTFGGGTKLEIK", "Recorded Measurement": 300}
{"Binder": "ACI-8033-6402E2-Ab2 (antibody, V domains shown, mouse hybridoma mAb; VH/VL only; also called 6402E2E4) VH: EVQLQHSGPDLVKPGASVKISCKASGYTFTDYYMNWVKQSHGKSLEWIGDINPNNGDTTYNQKFKGRATLTVDKSSSTAYMELRSLTSEDSAVYYCARSGSNYYAMDSWGQGTSVTVSS VL: DIVMSQSPSSLAVSAGERVTMSCKSSQSLFNSRTRKNYLAWYQQKPGQSPKLLIYWASTRESGVPDRFTGSGSGTDFSLNISSVQAEDLAVYYCKQSYDLWTFGGGTKLEIK", "Recorded Measurement": 3.26}
{"Binder": "ACI-8032-6304F3-Ab1 (antibody, V domains shown, mouse hybridoma mAb; VH/VL only; also called 6304F3D12) VH: QVQLQQSGAELARPGASVKLSCKASGYTFTSYGVSWVKQRTGQGLEWIGEIYPRSGNTYYNEKFKGKATLTADKSSSTAYMELRSLTSEDSAVYFCASESYYGDYDWYFDVWGTGTTVTVSS VL: DVLMTQIPLSLPVSPGDQVSISCRSSQSIVHSNGNTYLEWYLQKPGQSPKPLIYKVSNRFSGVPDRFSGSGSGTDFTLKISRVEAEDLGVYYCFQGSHVPPTFGGGTKLEIK", "Recorded Measurement": 4.75}
{"Binder": "ACI-8030-6106F5-Ab1 (antibody, V domains shown, mouse hybridoma mAb; VH/VL only; also called 6106F5B10) VH: QVQLQQSGPELVKPGASVKISCKASGYSFTTYYIHWMKQRPGQGPEWIGWIYPGRGYTKYNEKFKDKAAQTADTSSNTAYMQLSSLRSEDSAVYYCARDWETGFPYWGQGTLVTVSA VL: DIVLTQSPASLAVSLGQRATISCKASQSVDYGGDSWLNWYQQKPGQPPKLLIYAASNLDSGIPARFGGSGSGTDFTLNIHPVEEEDAATYYCQQSGEDPFTFGGGTNLEIK", "Recorded Measurement": 1.95}

The recorded Kd for entry ACI-7079-3103G12-Ab2 (antibody, V domains shown, mouse hybridoma mAb; VH/VL only; also called 3103G12D2B10) VH: DVQLQESGPGMVKPSQSLSLTCTVTGYSITSGYDWHWIRHFPGNKLEWMGYITYSGSTNYNPSLKSRISITHDTSKNHFFLKLTSVTTEDTATYYCARDTVDAWFAYWGQGTLVTVSA VL: DVLMTQAPLSLPVSLGDQASISCRSSQSIVHSNGDTYLEWYLQKPGQSPKLLIYKVSNRFSGVPDRFSGSGSGTDFTLKISRVEAEDLGVYYCFQGSHVPPTFGGGTKLEIK equals 2.4
